# Degradation assay (Degradation %) 1 μM per record follows
ASSAY TARGET: MLKL (Homo sapiens, UniProt Q8NB16)
Sequence (Q8NB16 whole entry): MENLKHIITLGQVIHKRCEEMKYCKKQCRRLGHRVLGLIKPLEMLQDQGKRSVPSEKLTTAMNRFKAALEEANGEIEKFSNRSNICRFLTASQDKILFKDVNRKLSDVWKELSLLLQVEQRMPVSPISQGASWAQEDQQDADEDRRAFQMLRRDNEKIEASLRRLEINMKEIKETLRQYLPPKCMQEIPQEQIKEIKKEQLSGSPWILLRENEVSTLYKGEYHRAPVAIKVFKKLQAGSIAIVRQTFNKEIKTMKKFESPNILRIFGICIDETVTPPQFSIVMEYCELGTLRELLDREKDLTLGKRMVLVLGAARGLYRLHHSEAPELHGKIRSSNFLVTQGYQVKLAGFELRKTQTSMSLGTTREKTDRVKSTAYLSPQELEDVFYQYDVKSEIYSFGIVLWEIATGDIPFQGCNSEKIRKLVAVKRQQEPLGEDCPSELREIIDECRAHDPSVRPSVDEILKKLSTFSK
ASSAY: MLKL degradation assay in HepG2 cell line (western blot)
Assay type: cell-based
Set-up: endogenous in cells; host or cells: HepG2 or HaCaT
RUN PARAMETERS: compound 1 μM; cell line not given
# unit: % | format: bare number

Worked set:
{"COMPOUND": "Nc1ncc(-c2cnn(C3CCN(CC4CCN(CC5CCN(C(=O)COc6ccc7c(c6)C(=O)N(C6CCC(=O)NC6=O)C7=O)CC5)CC4)CC3)c2)nc1C(=O)O[C@@H](C(=O)Nc1ccc(F)cc1)c1ccccc1 (stereo partly drawn)", "ASSAY TARGET": "MLKL (Homo sapiens, UniProt Q8NB16)", "UNITS OF MEASURE": "%", "Degradation assay (Degradation %) 1 μM": 50.12}
{"COMPOUND": "COc1cccc(NC(=O)[C@H](OC(=O)c2nc(-c3cnn(C4CCN(CCCN5CCN(C(=O)COc6ccc7c(c6)C(=O)N(C6CCC(=O)NC6=O)C7=O)CC5)CC4)c3)cnc2N)c2ccccc2)c1 (stereo partly drawn)", "ASSAY TARGET": "MLKL (Homo sapiens, UniProt Q8NB16)", "UNITS OF MEASURE": "%", "Degradation assay (Degradation %) 1 μM": 85.37}

Documented Degradation assay (Degradation %) 1 μM of Nc1ncc(-c2cnn(C3CCN(C4CC5(CCN(CC6CCN(C(=O)C7CN(C8=CC(=O)N(C9CCC(=O)NC9=O)C8=O)C7)CC6)CC5)C4)CC3)c2)nc1C(=O)O[C@@H](C(=O)Nc1ccc(F)cc1)c1ccccc1 (stereo partly drawn) : 49.96
